# assay system: furin, P09958;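 also: purified furin at 1:10 enzyme:substrate in 50 mM HEPES pH 7.5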
# Sequence (P09958 whole entry): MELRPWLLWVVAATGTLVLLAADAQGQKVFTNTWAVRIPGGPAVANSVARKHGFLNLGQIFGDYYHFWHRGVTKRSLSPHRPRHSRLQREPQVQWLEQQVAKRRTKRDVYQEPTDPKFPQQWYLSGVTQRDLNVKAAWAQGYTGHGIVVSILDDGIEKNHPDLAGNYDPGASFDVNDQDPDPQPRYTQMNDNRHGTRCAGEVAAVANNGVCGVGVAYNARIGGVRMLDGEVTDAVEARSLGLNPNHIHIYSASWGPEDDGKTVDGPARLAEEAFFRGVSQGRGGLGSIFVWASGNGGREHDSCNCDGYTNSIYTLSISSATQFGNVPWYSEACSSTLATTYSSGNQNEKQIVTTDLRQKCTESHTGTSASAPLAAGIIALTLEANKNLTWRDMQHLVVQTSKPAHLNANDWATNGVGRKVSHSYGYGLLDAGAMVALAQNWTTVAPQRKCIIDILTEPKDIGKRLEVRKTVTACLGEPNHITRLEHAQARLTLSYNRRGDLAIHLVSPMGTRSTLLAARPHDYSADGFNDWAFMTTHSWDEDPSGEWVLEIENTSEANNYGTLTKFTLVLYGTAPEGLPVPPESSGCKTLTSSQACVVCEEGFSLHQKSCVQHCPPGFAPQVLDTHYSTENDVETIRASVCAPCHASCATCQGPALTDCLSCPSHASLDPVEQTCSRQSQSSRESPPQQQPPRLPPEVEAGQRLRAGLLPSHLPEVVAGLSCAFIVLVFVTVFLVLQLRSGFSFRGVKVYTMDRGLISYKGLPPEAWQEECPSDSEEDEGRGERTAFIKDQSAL
# protocol notes: furin cleavage Z-score vs untreated control; higher = more cleavage, active = 3.5 or more, inactive = 1 or less, 8 variable residues between constant flanks
# condition set: 15 min
Some of the results follow. No count for the full screen is at hand.
Entries and their measured furin cleavage Z-score follow.
Give the figure only, with no unit attached.

sequence record: CAEVVTTTWVAGNASASA [HC156]
measurement: 0.111
//
sequence record: CAPGQRVEFLAGNASASA [HC1469]
measurement: -0.699

Qu. Hello, please tell me recorded furin cleavage Z-score for this one: CAYFSMVGNWAGNASASA [HC341]
Ans. -0.533

Qu. Assign furin cleavage Z-score to the following record: CAGIPFVSCQAGNASASA [HC1163]
Ans. 0.44
